# Tested on: MCF-7 breast adenocarcinoma
# assayProcedure: MTT in vitro cytotoxicity, MCF-7
# Type: cell-based, human
# testContext: Homo sapiens, MCF7, 240 h, read-out: IC50 Run 1
measuredEndpoint: IC50

Exercise: // IC50 lookup, key: O=S(=O)([O-])C(F)(F)F.O=S(=O)([O-])C(F)(F)F.c1cc[n+]2c(c1)-c1cccc[n+]1CC2 [Compound A]
Key: 2700 nM

====

# Test system: MCF-7 breast adenocarcinoma
# assayProcedure: MTT in vitro cytotoxicity, MCF-7
# Type: cell-based, human
# testContext: MCF-7, 10 day exposure, highest concentration 30 μM; read-out: IC50 Run 1
measuredEndpoint: pIC50
As a rule, pIC50 stands for the negative log10 of the concentration, concentration in M.

Exercise: // pIC50 lookup, key: N.N.[Cl][Pt][Cl] [Cisplatin]
Key: 5.64
